# STUDY_TARGET: CDK4/cyclin D3 (Homo sapiens)
# Construct: purchased Carna
# Sequence (P11802 whole entry): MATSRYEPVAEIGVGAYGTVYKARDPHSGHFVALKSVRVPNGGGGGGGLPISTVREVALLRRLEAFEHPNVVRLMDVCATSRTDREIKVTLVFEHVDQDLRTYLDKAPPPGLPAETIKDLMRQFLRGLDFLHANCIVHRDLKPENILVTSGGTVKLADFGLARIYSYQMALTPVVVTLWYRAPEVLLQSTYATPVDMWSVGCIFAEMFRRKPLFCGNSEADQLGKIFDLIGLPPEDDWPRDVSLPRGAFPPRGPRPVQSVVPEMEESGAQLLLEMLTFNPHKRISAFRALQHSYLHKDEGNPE
# Sequence (P30281 whole entry partner): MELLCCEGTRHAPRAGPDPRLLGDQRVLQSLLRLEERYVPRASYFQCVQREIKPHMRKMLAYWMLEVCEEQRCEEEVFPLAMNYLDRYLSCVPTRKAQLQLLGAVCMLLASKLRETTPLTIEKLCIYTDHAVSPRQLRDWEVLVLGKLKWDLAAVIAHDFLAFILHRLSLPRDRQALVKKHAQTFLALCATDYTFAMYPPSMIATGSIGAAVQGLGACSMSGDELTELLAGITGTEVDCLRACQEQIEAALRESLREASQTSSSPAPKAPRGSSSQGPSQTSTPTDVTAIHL
# EXPERIMENTAL_PROTOCOL: In vitro biochemical kinase activity assay for CDK4/cyclin D3 (HTRF)
# EXPERIMENTAL_CONDITIONS: unmarked data: 80 µM ATP in Step 1
pIC50: −log10 of the molar value.
RECORDED_METRIC: pIC50

(a) CC(C)c1c(C#Cc2nc(Nc3ccc(C4CCN(C)CC4)cn3)ncc2F)cnn1C
(b) CCN1CC2(C1)CN(c1ccc(Nc3ncc(Cl)c(C#Cc4cnn(C)c4C(C)C)n3)nc1)C2
(c) CNCc1ncc(C#Cc2nc(N[C@@H]3CCOC[C@H]3O)ncc2Cl)n1C(C)C
Lookup: Order the above molecules by increasing pIC50. // ordering of labels required in reply
Found: c, a, b

The measured values listed here are drawn from patent EP4782445A1.
